biological target: CB1 receptor (Rattus norvegicus, UniProt P20272)
Sequence (P20272 whole entry): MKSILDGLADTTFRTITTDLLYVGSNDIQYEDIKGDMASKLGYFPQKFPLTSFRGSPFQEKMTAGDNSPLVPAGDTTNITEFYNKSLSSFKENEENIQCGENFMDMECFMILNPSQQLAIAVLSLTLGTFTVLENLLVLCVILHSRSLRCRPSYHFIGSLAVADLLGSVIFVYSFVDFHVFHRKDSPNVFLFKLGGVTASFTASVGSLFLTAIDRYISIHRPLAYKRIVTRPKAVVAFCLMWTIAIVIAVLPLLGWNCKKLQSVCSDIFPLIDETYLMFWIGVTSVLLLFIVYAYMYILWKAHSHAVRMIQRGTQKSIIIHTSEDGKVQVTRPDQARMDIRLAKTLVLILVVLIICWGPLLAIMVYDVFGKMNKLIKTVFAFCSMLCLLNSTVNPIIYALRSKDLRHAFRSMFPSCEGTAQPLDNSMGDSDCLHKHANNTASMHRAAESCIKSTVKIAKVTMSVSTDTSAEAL
Assay Readout: pKi
Give bare numbers, as −log10 of the molar value.

Problem: // lookup pKi for "Cc1c(C(=O)NN2CCCCC2)nn(-c2ccc(Cl)cc2Cl)c1-c1ccc(C#CCCC#N)cc1"
Result: 9.05
